Listed below: electrical conductivity values for each entry.
# procedure text: xn = mol fraction of the nth substance listed
# particulars: 313.15 K; 101 kPa; x1 = 1.08e-06; x2 = 0
Lab note: write values as number then unit, every time.

Completed entries (count: 3):
>>> result("CCCCCCCCCCCCCCCC[n+]1ccccc1.O=C([O-])C(O)c1ccccc1 + C[C@H](N)C(=O)O + O")
"0.0009 S/m"
>>> result("CCCCCCCCCCCCCCCC[n+]1ccccc1.O=C([O-])C(O)c1ccccc1 + NCC(=O)O + O")
"0.0009 S/m"
>>> result("CCCCCCCCCCCCCCCC[n+]1ccccc1.O=C([O-])C(O)c1ccccc1 + CC(C)C[C@H](N)C(=O)O + O")
"0.0009 S/m"

// sample CCCCCCCCCCCCCCCC[n+]1ccccc1.O=C([O-])C(O)c1ccccc1 + CC(C)[C@H](N)C(=O)O + O , its electrical conductivity was 0.0009 S/m

// sample CCCCCCCCCCCCCCCC[n+]1ccccc1.O=C([O-])C(O)c1ccccc1 + NCC(=O)NCC(=O)O + O , its electrical conductivity was 0.0009 S/m

###

Listed below: electrical conductivity values for each entry.
# procedure text: xn = mol fraction of the nth substance listed
# particulars: 298.15 K; 101 kPa; x1 = 4.69e-06; x2 = 0
Answer with a number only, understood to be in S/m.

Completed entries (count: 4):
>>> recorded_number("CCCCCCCCCCCCCCCC[n+]1ccccc1.O=C([O-])C(O)c1ccccc1 + C[C@H](N)C(=O)O + O")
0.0026
>>> recorded_number("CCCCCCCCCCCCCCCC[n+]1ccccc1.O=C([O-])C(O)c1ccccc1 + NCC(=O)O + O")
0.0026
>>> recorded_number("CCCCCCCCCCCCCCCC[n+]1ccccc1.O=C([O-])C(O)c1ccccc1 + NCC(=O)NCC(=O)O + O")
0.0026
>>> recorded_number("CCCCCCCCCCCCCCCC[n+]1ccccc1.O=C([O-])C(O)c1ccccc1 + CC(C)[C@H](N)C(=O)O + O")
0.0026

# next molecule below
// sample CCCCCCCCCCCCCCCC[n+]1ccccc1.O=C([O-])C(O)c1ccccc1 + CC(C)C[C@H](N)C(=O)O + O , its electrical conductivity was 0.0026
